B1: Poly(rC)-binding protein 1, residues 278 to 350; numbered along this chain, Q15365 (parent)
chain: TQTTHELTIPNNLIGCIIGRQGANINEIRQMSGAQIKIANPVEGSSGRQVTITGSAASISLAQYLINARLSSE

variants of: B1; experiment: abundance fitness (aPCA) (normalised: wild type 0, dead -1); higher = more abundant; growth selection in yeast, the domain comes from the species named; conditions: Homo sapiens
METRIC: abundance fitness

> print(dat)
    variant  observed.measurement
 1     Q30G                -0.168
 2      T8W                -0.064
 3     C16G                -0.116
 4     T51F                -0.071
 5     L65D                -0.419
 6     S72M                -0.058
 7     A57L                -0.327
 8     L13P                -0.959
 9     A34V                -0.792
10     A39D                 0.032
11     V42D                -0.028
12     V42Y                -0.141
13     G44M                -0.343
14     E43Y                -0.051
15     S71V                 -0.14
16     N26T                -0.022
17     N40H                -0.094
18      Q2C                -0.263
19     I14W                -0.689
20     A62D                -0.711
21     Q49L                  0.03
22     Q49W                -0.613

Where do the numbers come from? From the Human Domainome abundance scans (Beltran et al. 2025).
